assay target: QsuB (Corynebacterium glutamicum, UniProt Q8NT86)
Sequence (Q8NT86 entry or part of it): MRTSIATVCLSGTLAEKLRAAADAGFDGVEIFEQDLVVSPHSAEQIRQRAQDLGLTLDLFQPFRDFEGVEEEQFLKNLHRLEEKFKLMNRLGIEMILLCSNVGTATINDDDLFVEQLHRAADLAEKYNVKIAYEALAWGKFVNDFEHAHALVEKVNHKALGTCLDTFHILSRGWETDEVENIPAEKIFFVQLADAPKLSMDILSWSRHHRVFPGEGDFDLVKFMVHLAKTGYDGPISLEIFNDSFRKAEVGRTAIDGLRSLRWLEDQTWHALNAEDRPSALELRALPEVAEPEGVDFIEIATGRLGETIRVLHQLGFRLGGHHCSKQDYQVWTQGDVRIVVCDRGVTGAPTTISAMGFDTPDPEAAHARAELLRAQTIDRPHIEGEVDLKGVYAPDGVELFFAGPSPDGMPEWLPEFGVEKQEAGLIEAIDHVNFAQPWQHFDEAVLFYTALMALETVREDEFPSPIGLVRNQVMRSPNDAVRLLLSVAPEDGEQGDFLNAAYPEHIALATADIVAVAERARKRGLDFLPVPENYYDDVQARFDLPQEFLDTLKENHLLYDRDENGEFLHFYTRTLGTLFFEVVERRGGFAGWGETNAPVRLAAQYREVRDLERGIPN
quantity measured: Ki

Query block: Give the observed Ki of O=C(O)c1ccc(O)c(O)c1 [3,4-DHBA, 3,4-dihydroxybenzoic acid] for QsuB (Corynebacterium glutamicum, UniProt Q8NT86).
Result block: ~380 µM

----------
assay target: QsuB (Corynebacterium glutamicum)
pIC50: −log10 of the molar value.
quantity measured: pIC50

Query block: GET pIC50 | system: QsuB (Corynebacterium glutamicum) | item: O=C(O)C1=CC(=O)C(O)C(O)C1 (stereo not shown) [DHS, 3-dehydroshikimic acid]
Result block: ~2.38
